B1: TRIM63 (parent)
chain: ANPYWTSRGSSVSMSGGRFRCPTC

Variants of: B1
Test: protein stability index of a GFP-peptide fusion (GPS, HEK-293T) (PSI 1-6); higher = more stable;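 note: lentivirally expressed fusions sorted by FACS into six bins by GFP to DsRed ratio, PSI derived from sequencing read proportions per bin multiplied by bin number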
Details: c terminus: a fixed tail appended
# reported protein stability index; entries follow
# answer = number (no unit)

protein stability index for T6A ? 2.1

protein stability index for S7H ? 1.45

protein stability index for T6E ? 1.51

protein stability index for C24G ? 3.18

protein stability index for S7M ? 2.53

protein stability index for N2H ? 2.3

protein stability index for G17E ? 1.7

protein stability index for R18K ? 1.44

protein stability index for R18N ? 2.24

protein stability index for F19G ? 3.02

Others:
protein stability index for T6Y ? 1.69

protein stability index for S15Y ? 1.57

protein stability index for P22Q ? 2.87

protein stability index for T6G ? 2.44

protein stability index for P22R ? 2.12
